// values below are reported pEC50
biological target: SARS-CoV-2-S1 (RBD)-His protein (Trenzyme) (SARS-CoV-2, UniProt P0DTC2 319-541); assay: iQue flow cytometry, antigen-coated beads
pEC50: −log10 of the molar value.
READOUT_TYPE: pEC50

NI-607.429_B9 (antibody, V domains shown) VH: EVQLVESGGGLVQPGGSLRLSCAASGFTFSSYWMSWVRQAPGKGLEWVANIKQDGSEKYYVDSVKGRFTISRDNAKNSLYLQMNSLRAEDTAVYYCASLFWRRGSFDPWGQGTLVTVSS VL: QSVLTQPHSVSESPGKTVTISCTRSTGSIASNYVQWYQQRPGSAPTTVIYEDNQRPSGVPDRFSGSIDSSSNSASLTISGLKTEDEADYYCQSYDTSSYWVFGGGTKLTVL    8.73
NI-607.429_E4 (antibody, V domains shown) VH: QVQLVESGGGLVQPGGSLRLSCAASGFTVSSNYMSWVRQAPGKGLEWVSVIYSGGSTFYADSVKGRFTISRDNSKNTLYLQMNSLRAEDTAVYYCARDLQESGMDVWGQGTTVTVSS VL: DIQLTQSPSSVSASVGDRVTITCRASQGISSWLAWYQQKPGKAPKLLIYAASSLQSGVPSRFSGSGSGTDFTLTISSLQPEDFATYYCQQANSFPTFGQGTRLEIK    8.72
NI-607.649_B11 (antibody, V domains shown) VH: QVQLVQSGAEVKKPGSSVKVSCKASGGTFSNYAISWVRQAPGQGLEWMGGIIPIFGTANYAQKFQGRVTITADESTSTAYMELSSLRSEDTAVYYCAGDRWYYDSSGYPTPDEYFQHWGQGTQVTVSS VL: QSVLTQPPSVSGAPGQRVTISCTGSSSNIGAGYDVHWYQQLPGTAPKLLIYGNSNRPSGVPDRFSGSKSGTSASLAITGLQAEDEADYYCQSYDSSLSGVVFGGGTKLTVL    8.85
NI-607.426_F11 (antibody, V domains shown) VH: QVQLVESGGGLVQPGGSLRLSCAASGFTFSSYWMSWVRQAPGKGLEWVANIKQDGSEKYYVDSVKGRFTISRDNAKNSLYLQMNSLRAEDTAVYYCARGLVGQWLGVDYWGQGTLVTVSS VL: QSVLTQPHSVSESPGKTVTISCTGSSGSIASNYVQWYQQRPGSAPTTVIYEDNQRPSGVPDRFSGSIDSSSNSASLTISGLKTEDEADYYCQSYDSSNWVFGGGTKLTVL    9.05

Taken from patent US20230242624A1.
